Sourced from patent US20200239555A1

Would you kindly list kon for each of these binders?
Target: T1, biotinylated native human ApoC3 (human, UniProt P02656 21-99, biotinylated (site not stated))
T1 construct: also called biotinylated human ApoC3
T1 sequence (P02656 21-99): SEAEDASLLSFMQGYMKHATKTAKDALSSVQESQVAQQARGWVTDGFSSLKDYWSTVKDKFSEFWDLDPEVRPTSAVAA
Assay: SPR, IgG1 over biotinylated ApoC3 on SA chip, pH 5.5
Response body: numeric value in M⁻¹ s⁻¹, unit text excluded.

Exam item: Respond only with kon recorded for mAb7 (antibody, V domains shown, Produced as full length IgG1 (kappa) in ExpiCHO-S cells; also called humanized anti-ApoC3 antibody mAb7) VH: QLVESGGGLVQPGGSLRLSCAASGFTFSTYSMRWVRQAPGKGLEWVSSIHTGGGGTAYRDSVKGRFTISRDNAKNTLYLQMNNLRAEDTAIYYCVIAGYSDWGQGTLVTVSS VL: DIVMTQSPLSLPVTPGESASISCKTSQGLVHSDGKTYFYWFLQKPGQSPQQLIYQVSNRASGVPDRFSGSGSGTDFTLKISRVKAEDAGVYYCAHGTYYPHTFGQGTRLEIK
Marked response: 656000

Exam item: Specify reported kon for the binder shown: mAb9 (antibody, IgG1, V domains shown, Produced as full length IgG1 (kappa) in ExpiCHO-S cells; also called humanized anti-ApoC3 antibody mAb9) VH: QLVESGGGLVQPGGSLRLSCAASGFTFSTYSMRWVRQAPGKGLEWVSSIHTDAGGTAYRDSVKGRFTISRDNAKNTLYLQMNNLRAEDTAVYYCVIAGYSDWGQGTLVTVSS VL: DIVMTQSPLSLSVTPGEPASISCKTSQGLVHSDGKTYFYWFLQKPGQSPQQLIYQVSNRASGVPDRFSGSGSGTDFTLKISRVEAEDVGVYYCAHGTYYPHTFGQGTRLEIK
Marked response: 486000

Exam item: Please report kon for the following binder: mAb6 (antibody, IgG1, V domains shown, Produced as full length IgG1 (kappa) in ExpiCHO-S cells; also called humanized anti-ApoC3 antibody mAb6) VH: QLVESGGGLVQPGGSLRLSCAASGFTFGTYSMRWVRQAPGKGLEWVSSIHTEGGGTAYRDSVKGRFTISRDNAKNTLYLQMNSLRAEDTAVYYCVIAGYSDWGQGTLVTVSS VL: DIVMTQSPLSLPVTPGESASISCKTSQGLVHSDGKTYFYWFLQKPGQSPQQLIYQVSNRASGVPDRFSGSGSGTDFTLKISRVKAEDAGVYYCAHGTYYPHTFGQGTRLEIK
Marked response: 425000

Exam item: Return the recorded kon value; entry: mAb3 (antibody, IgG1, V domains shown, Produced as full length IgG1 (kappa) in ExpiCHO-S cells; also called humanized anti-ApoC3 antibody mAb3) VH: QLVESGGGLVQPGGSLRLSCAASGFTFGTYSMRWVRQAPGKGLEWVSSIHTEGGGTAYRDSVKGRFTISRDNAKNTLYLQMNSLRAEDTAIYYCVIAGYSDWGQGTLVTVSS VL: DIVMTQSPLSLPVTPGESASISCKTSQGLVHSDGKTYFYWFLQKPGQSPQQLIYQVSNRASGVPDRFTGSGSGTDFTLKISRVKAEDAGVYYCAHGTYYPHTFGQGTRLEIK
Marked response: 363000

Exam item: Read the entry 5E5WT human IgG1 (antibody, V domains shown) VH: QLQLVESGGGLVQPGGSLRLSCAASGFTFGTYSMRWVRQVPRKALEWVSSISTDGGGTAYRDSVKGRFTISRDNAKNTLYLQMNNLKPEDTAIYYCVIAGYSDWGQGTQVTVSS VL: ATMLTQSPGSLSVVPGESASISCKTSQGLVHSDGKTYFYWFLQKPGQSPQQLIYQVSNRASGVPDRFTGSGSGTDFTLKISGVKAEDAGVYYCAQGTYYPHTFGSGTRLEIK and write its reported kon.
Marked response: 340000
